test system: Plasmodium falciparum parasite; experiment: Whole cell assay: whole cell activity against the parasite; type: cell-based; conditions: Plasmodium falciparum
pIC50: −log10 of the molar value. Where a name gives a salt, the structure may show the parent alone.
recordedMetric: pIC50

Worked set:
compound	pIC50
CC(=O)N1CCC(N(NC(=O)c2ccc(CN3CCN(C)CC3)cc2)c2nc(C#N)ncc2Br)CC1 [Example 37, trifluoroacetate]	6.82 to 7.82
CN1CCN(C(=O)C2CCN(Cc3cccc(C(=O)NN(c4nc(C#N)ncc4Br)C4CCCCC4)c3)CC2)CC1 [Example 23, trifluoroacetate]	7.82 to 8.60
CN1CCN(Cc2ccc(C(=O)NN(c3nc(C#N)ncc3Br)C3CCCC3)cc2)CC1 [Example 1, trifluoroacetate]	6.82 to 7.82
CN1CCN(C(=O)C2CCN(Cc3ccc(C(=O)NN(c4nc(C#N)ncc4Cl)C4CCOCC4)cc3)CC2)CC1	6.82 to 7.82
CN1CCCC(CN2CCN(Cc3ccc(C(=O)NN(c4nc(C#N)ncc4Br)C4CCCCC4)cc3)CC2)C1 (stereo not drawn) [Example 25, trifluoroacetate]	7.82 to 8.60

Exam item: # pIC50 lookup, item CN(CC(=O)N(C)C)Cc1ccc(C(=O)NN(c2nc(C#N)ncc2Cl)C2CCCC2)cc1 [Example 60, trifluoroacetate]
Marked response: 6.82 to 7.82

Exam item: Could you do the same for CC(C)N(Cc1ccc(C(=O)NN(c2nc(C#N)ncc2Cl)C2CCCC2)cc1)C1CCCCC1 [Example 75, trifluoroacetate] , please?
Marked response: 6.82 to 7.82

Exam item: Quick one: CN(CCO)Cc1ccc(C(=O)NN(c2nc(C#N)ncc2Cl)C2CCCC2)cc1
Marked response: 6.82 to 7.82

Exam item: Similarly, CN1CCN(C(=O)C2CCN(Cc3ccc(C(=O)NN(c4nc(C#N)ncc4Br)C4CCCCC4)cc3)CC2)CC1 [Example 22, trifluoroacetate] ?
Marked response: 7.82 to 8.60

Exam item: Now try CC1CCC(N(NC(=O)c2ccc(CN3CCC(N4CCN(C)CC4)CC3)cc2)c2nc(C#N)ncc2Br)C1 (stereo not drawn) [Example 4, trifluoroacetate] .
Marked response: > 9.00

* * *

test system: Plasmodium falciparum parasite; assay: Whole cell assay: whole cell activity against the parasite; assay type: cell-based; conditions: Plasmodium falciparum
Structures can show the parent of a compound that is named as a salt.
Below, each entry is listed alongside its reported IC50.

molecule	targetOrSystem	recordedMetric	recordedResult
CN(CCCc1ccccc1)Cc1ccc(C(=O)NN(c2nc(C#N)ncc2Cl)C2CCCC2)cc1 [Example 64, trifluoroacetate]	Plasmodium falciparum parasite	IC50	15 to 150 nM
CN(Cc1ccc(C(=O)NN(c2nc(C#N)ncc2Cl)C2CCCC2)cc1)C(C)(C)C [Example 73, trifluoroacetate]	Plasmodium falciparum parasite	IC50	2.5 to 15 nM
CN1CCN(Cc2ccc(C(=O)NN(c3nc(C#N)ncc3Cl)C3CCCC3)cc2)CC1 [Example 50, trifluoroacetate]	Plasmodium falciparum parasite	IC50	15 to 150 nM
CCN(Cc1ccc(C(=O)NN(c2nc(C#N)ncc2Cl)C2CCCC2)cc1)C1CCCCC1 [Example 69, trifluoroacetate]	Plasmodium falciparum parasite	IC50	2.5 to 15 nM
CC(=O)N1CCC(N(NC(=O)c2ccc(CN3CCC(N4CCN(C)CC4)CC3)cc2)c2nc(C#N)ncc2Br)CC1 [Example 38, trifluoroacetate]	Plasmodium falciparum parasite	IC50	150 to 250 nM
CN1CCN(c2cccc(C(=O)NN(c3nc(C#N)ncc3Cl)C3CCCC3)n2)CC1 [Example 78, trifluoroacetate]	Plasmodium falciparum parasite	IC50	15 to 150 nM
CN1CCCC(CN2CCN(Cc3cccc(C(=O)NN(c4nc(C#N)ncc4Br)C4CCCC4)c3)CC2)C1 (centres unmarked) [Example 14, trifluoroacetate]	Plasmodium falciparum parasite	IC50	2.5 to 15 nM
CN1CCN(Cc2ccc(C(=O)NN(c3nc(C#N)ncc3Br)C3CCCCC3)cc2)CC1 [Example 16, trifluoroacetate]	Plasmodium falciparum parasite	IC50	2.5 to 15 nM

Exam item: Value wanted: IC50 (Plasmodium falciparum parasite) of entry CCN(Cc1ccc(C(=O)NN(c2nc(C#N)ncc2Cl)C2CCCC2)cc1)C(C)C [Example 68, trifluoroacetate]
Marked response: 2.5 to 15 nM

Exam item: What about this molecule? N#Cc1ncc(Br)c(N(NC(=O)c2ccc(CN3CCC(O)CC3)cc2)C2CCCCC2)n1 [Example 21, trifluoroacetate]
Marked response: 15 to 150 nM

Exam item: Try this molecule too: CCCCN(C)Cc1ccc(C(=O)NN(c2nc(C#N)ncc2Cl)C2CCCC2)cc1 [Example 57, trifluoroacetate]
Marked response: 15 to 150 nM
